Measurement Notes: total protein half-life in vivo (active degradation + dilution); higher = more stable protein
Condition Set: E. coli NCM3722 delta-smpB; growth: N-lim chemostat; doubling time 6 h
Recorded total protein half-life in vivo values for a group of sequences are listed next.
// return numeric value only (unit: h, not printed)

Sequence Text	Measured Property	Unit Annotation	Measured Value
MIYLRKANERGHANHGWLDSWHTFSFANYYDPNFMGFSALRVINDDVIEAGQGFGTHPHKDMEILTYVLEGTVEHQDSMGNKEQVPAGEFQIMSAGTGIRHSEYNPSSTERLHLYQIWIMPEENGITPRYEQRRFDAVQGKQLVLSPDARDGSLKVHQDMELYRWALLKDEQSVHQIAAERRVWIQVVKGNVTINGVKASTSDGLAIWDEQAISIHADSDSEVLLFDLPPV	total protein half-life in vivo	h	4.36
MSKRLPPLNALRVFDAAARHLSFTRAAEELFVTQAAVSHQIKSLEDFLGLKLFRRRNRSLLLTEEGQSYFLDIKEIFSQLTEATRKLQARSAKGALTVSLLPSFAIHWLVPRLSSFNSAYPGIDVRIQAVDRQEDKLADDVDVAIFYGRGNWPGLRVEKLYAEYLLPVCSPLLLTGEKPLKTPEDLAKHTLLHDASRRDWQTYTRQLGLNHINVQQGPIFSHSAMVLQAAIHGQGVALANNVMAQSEIEAGRLVCPFNDVLVSKNAFYLVCHDSQAELGKIAAFRQWILAKAAAEQEKFRFRYEQ [P0A9F6]	total protein half-life in vivo	h	5.73
MTTKKADYIWFNGEMVRWEDAKVHVMSHALHYGTSVFEGIRCYDSHKGPVVFRHREHMQRLHDSAKIYRFPVSQSIDELMEACRDVIRKNNLTSAYIRPLIFVGDVGMGVNPPAGYSTDVIIAAFPWGAYLGAEALEQGIDAMVSSWNRAAPNTIPTAAKAGGNYLSSLLVGSEARRHGYQEGIALDVNGYISEGAGENLFEVKDGVLFTPPFTSSALPGITRDAIIKLAKELGIEVREQVLSRESLYLADEVFMSGTAAEITPVRSVDGIQVGEGRCGPVTKRIQQAFFGLFTGETEDKWGWLDQVNQ [P0AB80]	total protein half-life in vivo	h	3.75

QUERY: What does the data say about its total protein half-life in vivo? Entry: MNNSAFTFQTLHPDTIMDALFEHGIRVDSGLTPLNSYENRVYQFQDEDRRRFVVKFYRPERWTADQILEEHQFALQLVNDEVPVAAPVAFNGQTLLNHQGFYFAVFPSVGGRQFEADNIDQMEAVGRYLGRMHQTGRKQLFIHRPTIGLNEYLIEPRKLFEDATLIPSGLKAAFLKATDELIAAVTAHWREDFTVLRLHGDCHAGNILWRDGPMFVDLDDARNGPAVQDLWMLLNGDKAEQRMQLETIIEAYEEFSEFDTAEIGLIEPLRAMRLVYYLAWLMRRWADPAFPKNFPWLTGEDYWLRQTATFIEQAKVLQEPPLQLTPMY [P0C0K3]
RESULT: 4.22

QUERY: Look up total protein half-life in vivo: MIKQRTLKRIVQATGVGLHTGKKVTLTLRPAPANTGVIYRRTDLNPPVDFPADAKSVRDTMLCTCLVNEHDVRISTVEHLNAALAGLGIDNIVIEVNAPEIPIMDGSAAPFVYLLLDAGIDELNCAKKFVRIKETVRVEDGDKWAEFKPYNGFSLDFTIDFNHPAIDSSNQRYAMNFSADAFMRQISRARTFGFMRDIEYLQSRGLCLGGSFDCAIVVDDYRVLNEDGLRFEDEFVRHKMLDAIGDLFMCGHNIIGAFTAYKSGHALNNKLLQAVLAKQEAWEYVTFQDDAELPLAFKAPSAVLA [P0A725]
RESULT: 0.639
